Each entry below carries its reported MIC.
# Tested on: E. faecalis ATCC 29212
# Type: cell-based, Enterococcus faecalis
# test settings: ATCC 29212, 20 h
Where a SMILES comes first, the peptide text is derived from it. [ ]: non-standard residue; d: D form. The star is where a group is joined. d(aIle) = CC[C@H](C)[C@@H](N)C(=O)O; dDab = NCC[C@@H](N)C(=O)O; Octanoyl = CCCCCCCC(=O)*; Dab = NCC[C@H](N)C(=O)O

// solved cases for MIC follow
compound	target entity	MIC
CCCCCCCC(=O)N[C@@H](C(=O)N[C@H](CCN)C(=O)NCC(=O)N[C@H](CO)C(=O)N[C@H](Cc1c[nH]c2ccccc12)C(=O)N[C@@H](CO)C(=O)N[C@@H](CCN)C(=O)N[C@H](CCN)C(=O)N[C@@H](Cc1c[nH]c2ccccc12)C(=O)N[C@@H](CCC(=O)O)C(=O)N[C@H](C(=O)N[C@@H](C(=O)N[C@@H](C)C(=O)O)[C@@H](C)CC)C(C)C)C(C)C [Oct-TriA5] (Octanoyl-[dV][dDab]G[dS][dW]S[Dab][dDab]WEV[d(aIle)]A-OH)	E. faecalis ATCC 29212	8 µg/mL
CCCCCCCC(=O)N[C@@H](C(=O)N[C@H](CCN)C(=O)NCC(=O)N[C@H](CO)C(=O)N[C@H](Cc1c[nH]c2ccccc12)C(=O)N[C@@H](CO)C(=O)N[C@@H](CCN)C(=O)N[C@H](CCN)C(=O)N[C@@H](CO)C(=O)N[C@@H](CCC(=O)O)C(=O)N[C@H](C(=O)N[C@@H](C(=O)N[C@@H](C)C(=O)O)[C@@H](C)CC)C(C)C)C(C)C [Oct-Ser9] (Octanoyl-[dV][dDab]G[dS][dW]S[Dab][dDab]SEV[d(aIle)]A-OH)	E. faecalis ATCC 29212	>64 µg/mL

Continue with the compound presented below.
[Q] Jot down MIC (E. faecalis ATCC 29212) of CCCCCCCC(=O)N[C@@H](C(=O)N[C@H](CCN)C(=O)NCC(=O)N[C@H](CO)C(=O)N[C@H](Cc1c[nH]c2ccccc12)C(=O)N[C@@H](CO)C(=O)N[C@@H](CCN)C(=O)N[C@H](CCN)C(=O)N[C@@H](C)C(=O)N[C@@H](CCC(=O)O)C(=O)N[C@H](C(=O)N[C@@H](C(=O)N[C@@H](C)C(=O)O)[C@@H](C)CC)C(C)C)C(C)C [Oct-Ala9] (Octanoyl-[dV][dDab]G[dS][dW]S[Dab][dDab]AEV[d(aIle)]A-OH) .
[A] >64 µg/mL

* * *

# System: S. aureus UAMS-1625
# Assay type: cell-based, Staphylococcus aureus
# test settings: S. aureus UAMS-1625 (BV18); CLSI broth dilution, cation-adjusted Mueller Hinton broth, 20 h, 35 °C, read visually
# Experimental: All minimum inhibitory concentrations (MICs) were determined according to the Clinical and Standards Laboratory Institute (CLSI) guidelines. In brief, agar plates were inoculated from glycerol stocks and incubated overnight at 35 °C. Peptide DMSO stocks were dispensed into 96-well round-bottom plates using a TECAN D300e dispenser. […] Images of all plates were recorded, and MIC was assessed visually.
Where a SMILES comes first, the peptide text is derived from it. [ ]: non-standard residue; d: D form. The star is where a group is joined. d(aIle) = CC[C@H](C)[C@@H](N)C(=O)O; dDab = NCC[C@@H](N)C(=O)O; Octanoyl = CCCCCCCC(=O)*; Dab = NCC[C@H](N)C(=O)O
recorded metric: MIC

Here is how some compounds turned out for MIC.
compound	MIC
CCCCCCCC(=O)N[C@@H](C(=O)N[C@H](CCN)C(=O)NCC(=O)N[C@H](CO)C(=O)N[C@H](Cc1c[nH]c2ccccc12)C(=O)N[C@@H](CO)C(=O)N[C@@H](CCN)C(=O)N[C@H](CCN)C(=O)N[C@@H](Cc1c[nH]cn1)C(=O)N[C@@H](CCC(=O)O)C(=O)N[C@H](C(=O)N[C@@H](C(=O)N[C@@H](C)C(=O)O)[C@@H](C)CC)C(C)C)C(C)C [Oct-His9] (Octanoyl-[dV][dDab]G[dS][dW]S[Dab][dDab]HEV[d(aIle)]A-OH)	>64 µg/mL
CCCCCCCC(=O)N[C@@H](C(=O)N[C@H](CCN)C(=O)NCC(=O)N[C@H](CO)C(=O)N[C@H](Cc1c[nH]c2ccccc12)C(=O)N[C@@H](CO)C(=O)N[C@@H](CCN)C(=O)N[C@H](CCN)C(=O)N[C@H](C(=O)N[C@@H](CCC(=O)O)C(=O)N[C@H](C(=O)N[C@@H](C(=O)N[C@@H](C)C(=O)O)[C@@H](C)CC)C(C)C)[C@@H](C)CC)C(C)C [Oct-Ile9] (Octanoyl-[dV][dDab]G[dS][dW]S[Dab][dDab]IEV[d(aIle)]A-OH)	>64 µg/mL

As a next step, examine the compound that follows.
[Q] In one line, give reported MIC of the entry CCCCCCCC(=O)N[C@@H](C(=O)N[C@H](CCN)C(=O)NCC(=O)N[C@H](CO)C(=O)N[C@H](Cc1c[nH]c2ccccc12)C(=O)N[C@@H](CO)C(=O)N[C@@H](CCN)C(=O)N[C@H](CCN)C(=O)N[C@H](C(=O)N[C@@H](CCC(=O)O)C(=O)N[C@H](C(=O)N[C@@H](C(=O)N[C@@H](C)C(=O)O)[C@@H](C)CC)C(C)C)C(C)C)C(C)C [Oct-Val9] (Octanoyl-[dV][dDab]G[dS][dW]S[Dab][dDab]VEV[d(aIle)]A-OH) .
[A] >64 µg/mL

* * *

# Tested on: E. faecium ATCC 51559
# Format: cell-based, Enterococcus faecium
# test settings: ATCC 51559, 20 h
Where a SMILES comes first, the peptide text is derived from it. [ ]: non-standard residue; d: D form. The star is where a group is joined. d(aIle) = CC[C@H](C)[C@@H](N)C(=O)O; dDab = NCC[C@@H](N)C(=O)O; Octanoyl = CCCCCCCC(=O)*; Dab = NCC[C@H](N)C(=O)O
// values below are reported MIC
The response must be a number in µg/mL with no trailing unit.

compound	reported measurement
CCCCCCCC(=O)N[C@@H](C(=O)N[C@H](CCN)C(=O)NCC(=O)N[C@H](CO)C(=O)N[C@H](Cc1c[nH]c2ccccc12)C(=O)N[C@@H](CO)C(=O)N[C@@H](CCN)C(=O)N[C@H](CCN)C(=O)N[C@@H](Cc1ccc(O)cc1)C(=O)N[C@@H](CCC(=O)O)C(=O)N[C@H](C(=O)N[C@@H](C(=O)N[C@@H](C)C(=O)O)[C@@H](C)CC)C(C)C)C(C)C [Oct-Tyr9] (Octanoyl-[dV][dDab]G[dS][dW]S[Dab][dDab]YEV[d(aIle)]A-OH)	64
CCCCCCCC(=O)N[C@@H](C(=O)N[C@H](CCN)C(=O)NCC(=O)N[C@H](CO)C(=O)N[C@H](Cc1c[nH]c2ccccc12)C(=O)N[C@@H](CO)C(=O)N[C@@H](CCN)C(=O)N[C@H](CCN)C(=O)N[C@H](C(=O)N[C@@H](CCC(=O)O)C(=O)N[C@H](C(=O)N[C@@H](C(=O)N[C@@H](C)C(=O)O)[C@@H](C)CC)C(C)C)[C@@H](C)CC)C(C)C [Oct-Ile9] (Octanoyl-[dV][dDab]G[dS][dW]S[Dab][dDab]IEV[d(aIle)]A-OH)	64

Moving on to the next compound.
[Q] Please indicate MIC recorded for CCCCCCCC(=O)N[C@H](Cc1ccccc1)C(=O)N[C@H](CCN)C(=O)N[C@@H](C(=O)N[C@H](CO)C(=O)N[C@H](Cc1c[nH]c2ccccc12)C(=O)N[C@@H](CO)C(=O)N[C@@H](CO)C(=O)N[C@H](CCN)C(=O)N[C@@H](Cc1c[nH]c2ccccc12)C(=O)N[C@@H](CO)C(=O)N[C@H](C(=O)N[C@@H](C(=O)N[C@@H](CCN)C(=O)O)[C@@H](C)CC)C(C)C)[C@H](C)CC [Oct-TriD] (Octanoyl-[dF][dDab][dI][dS][dW]SS[dDab]WSV[d(aIle)][Dab]-OH)
[A] 4

* * *

# Test system: A. baumannii HUMC1
# Format: cell-based, Acinetobacter baumannii
# test settings: HUMC1, 20 h
Where a SMILES comes first, the peptide text is derived from it. [ ]: non-standard residue; d: D form. The star is where a group is joined. d(aIle) = CC[C@H](C)[C@@H](N)C(=O)O; dDab = NCC[C@@H](N)C(=O)O; Octanoyl = CCCCCCCC(=O)*; Dab = NCC[C@H](N)C(=O)O
The following compounds are listed with their measured MIC values.
Provide the reading as a plain figure in µg/mL.

compound	target entity	MIC, µg/mL
CCCCCCCC(=O)N[C@@H](C(=O)N[C@H](CCN)C(=O)NCC(=O)N[C@H](CO)C(=O)N[C@H](Cc1c[nH]c2ccccc12)C(=O)N[C@@H](CO)C(=O)N[C@@H](CCN)C(=O)N[C@H](CCN)C(=O)N[C@@H](Cc1ccccc1)C(=O)N[C@@H](CCC(=O)O)C(=O)N[C@H](C(=O)N[C@@H](C(=O)N[C@@H](C)C(=O)O)[C@@H](C)CC)C(C)C)C(C)C [Oct-TriA1] (Octanoyl-[dV][dDab]G[dS][dW]S[Dab][dDab]FEV[d(aIle)]A-OH)	A. baumannii HUMC1	16
CCCCCCCC(=O)N[C@@H](C(=O)N[C@H](CCN)C(=O)NCC(=O)N[C@H](CO)C(=O)N[C@H](Cc1c[nH]c2ccccc12)C(=O)N[C@@H](CO)C(=O)N[C@@H](CCN)C(=O)N[C@H](CCN)C(=O)N[C@@H](Cc1ccc(O)cc1)C(=O)N[C@@H](CCC(=O)O)C(=O)N[C@H](C(=O)N[C@@H](C(=O)N[C@@H](C)C(=O)O)[C@@H](C)CC)C(C)C)C(C)C [Oct-Tyr9] (Octanoyl-[dV][dDab]G[dS][dW]S[Dab][dDab]YEV[d(aIle)]A-OH)	A. baumannii HUMC1	32

Now turn to the next compound.
[Q] Identify measured MIC associated with CCCCCCCC(=O)N[C@@H](C(=O)N[C@H](CCN)C(=O)NCC(=O)N[C@H](CO)C(=O)N[C@H](Cc1c[nH]c2ccccc12)C(=O)N[C@@H](CO)C(=O)N[C@@H](CCN)C(=O)N[C@H](CCN)C(=O)N[C@@H](Cc1c[nH]c2ccccc12)C(=O)N[C@@H](CCC(=O)O)C(=O)N[C@H](C(=O)N[C@@H](C(=O)N[C@@H](C)C(=O)O)[C@@H](C)CC)C(C)C)C(C)C [Oct-TriA5] (Octanoyl-[dV][dDab]G[dS][dW]S[Dab][dDab]WEV[d(aIle)]A-OH)
[A] 8

Cited source: paper PMC11106739
